test: Toxicity in po dosed Swiss albino mouse administered as single dose; assay type: organism-based; details: in vivo
assayMetric: MTD

Problem: Given the compound COc1ccc(C(c2ccccc2OCCN2CCCC2)c2cccc3ccccc23)c(OC)c1OC (stereo unspecified) , what is its reported MTD?
Result: ≤ 300 mg/kg

* * *

system: THP-1; test: Antiproliferative activity against human THP-1 cells assessed as inhibition of cell growth measured after 48 hrs by SRB assay; assay type: functional, cell-based; conditions: THP-1, 48 h
Provide the reported IC50 of each item.
Numbers only, in µM.

// solved cases for IC50 follow
Problem: Given the compound `COc1ccc(/C(=C/c2ccc(F)cc2)c2cccc3ccccc23)c(OC)c1OC` , what is its reported IC50?
Result: 18.9

Problem: Given the compound CCN(CC)CCOc1ccc(C(c2ccc(OC)c(OC)c2OC)c2cccc3ccccc23)cc1 (stereo unspecified) , what is its reported IC50?
Result: 13.9

Problem: Given the compound COc1ccc(C(O)(C/C=C\c2ccccc2)c2cccc3ccccc23)c(OC)c1OC (stereo unspecified) , what is its reported IC50?
Result: 19.4

Okay, here is my list. What is IC50 for each of these?
1. COc1ccc(C(c2ccc(OCCN(C)C)cc2)c2cccc3ccccc23)c(OC)c1OC (stereo unspecified)
2. C=C(c1ccc(OC)c(OC)c1OC)c1cccc2ccccc12
3. COc1ccc(C(c2ccccc2OCCN2CCCCC2)c2cccc3ccccc23)c(OC)c1OC (stereo unspecified)

Result:
7.95
12.5
19.1

* * *

Provide the reported IC50 of each item.
tested on: A549; experiment: Antiproliferative activity against human A549 cells assessed as inhibition of cell growth measured after 48 hrs by SRB assay; format: functional, cell-based; conditions: A549, 48 h
Numbers only, in µM.

Problem: Given the molecule COc1ccc(C(OCCN(C)C)c2cccc3ccccc23)c(OC)c1OC (stereo not given) , what is its reported IC50?
Result: 17.9

Okay, here is my list. What is IC50 for each of these?
1. CCN(CC)CCOc1ccc(C(c2ccc(OC)c(OC)c2OC)c2cccc3ccccc23)cc1 (stereo not given)
2. COC(=O)c1ccc(COC(c2ccc(OC)c(OC)c2OC)c2cccc3ccccc23)cc1 (stereo not given)
3. COc1ccc(C(O)(C/C=C\c2ccccc2)c2cccc3ccccc23)c(OC)c1OC (stereo not given)
4. COc1ccc(C(c2ccc(O)cc2)c2cccc3ccccc23)c(OC)c1OC (stereo not given)
5. COc1ccc(C(O)(Cc2ccc(F)cc2)c2cccc3ccccc23)c(OC)c1OC (stereo not given)
6. C=CCC(O)(c1ccc(OC)c(OC)c1OC)c1cccc2ccccc12 (stereo not given)

Result:
1: 11.5; 2: 12; 3: 17.6; 4: 16.4; 5: 5.94; 6: 10.7

Problem: Given the molecule `COc1ccc(/C(=N/OCC(=O)O)c2cccc3ccccc23)c(OC)c1OC` , what is its reported IC50?
Result: 17.2

* * *

test system: THP-1; experiment: Antiproliferative activity against human THP-1 cells assessed as inhibition of cell growth measured after 48 hrs by SRB assay; assay type: functional, cell-based; details: THP-1, 48 h
assayMetric: IC50

// solved cases for IC50 follow
Problem: Given the compound COc1cc(COC(c2ccc(OC)c(OC)c2OC)c2cccc3ccccc23)cc(OC)c1 (stereo not given) , what is its reported IC50?
Result: > 20 µM

Problem: Given the compound `COc1ccc(/C(=N/OCC(=O)O)c2cccc3ccccc23)c(OC)c1OC` , what is its reported IC50?
Result: > 20 µM

Problem: Given the compound COc1ccc(C(c2ccc(OCCN3CCCC3)cc2)c2cccc3ccccc23)c(OC)c1OC (stereo not given) , what is its reported IC50?
Result: 5.4 µM

Okay, here is my list. What is IC50 for each of these?
1. COc1ccc(C(c2ccc(OCCO)cc2)c2cccc3ccccc23)c(OC)c1OC (stereo not given)
2. COc1ccc(C(c2ccc(OCCN3CCCCC3)cc2)c2cccc3ccccc23)c(OC)c1OC (stereo not given)

Result:
["16.6 µM", "16.6 µM"]
